Entry source: the OligoGym collection

# target: TMEM63B
# assayDetails: reporter assay of Huesken 2005
# particulars: siRNA
Oligonucleotides are given in HELM: sugar(base)linkage, 5' to 3'; d 2'-deoxyribose, r ribose, m 2'-O-methylribose, p phosphate. ss, as = sense and antisense strand
Decide using normalised inhibition (eCFP-eYFP dual reporter): a value greater than or equal to 60% is Yes, a smaller one is No.

Solved entries:
[[record]]
substance = "RNA1{r(G)p.r(C)p.r(A)p.r(C)p.r(A)p.r(A)p.r(G)p.r(U)p.r(G)p.r(C)p.r(U)p.r(A)p.r(C)p.r(A)p.r(C)p.r(U)p.r(U)p.r(U)p.r(C)p.d(T)p.d(T)}|RNA2{r(G)p.r(A)p.r(A)p.r(A)p.r(G)p.r(U)p.r(G)p.r(U)p.r(A)p.r(G)p.r(C)p.r(A)p.r(C)p.r(U)p.r(U)p.r(G)p.r(U)p.r(G)p.r(C)p.d(A)p.d(T)}$$$RNA1{StrandType:ss}|RNA2{StrandType:as}$"
target = "TMEM63B"
categorylabel = "Yes"

[[record]]
substance = "RNA1{r(C)p.r(U)p.r(C)p.r(C)p.r(G)p.r(U)p.r(U)p.r(G)p.r(A)p.r(C)p.r(U)p.r(U)p.r(U)p.r(G)p.r(A)p.r(C)p.r(C)p.r(A)p.r(A)p.d(T)p.d(T)}|RNA2{r(U)p.r(U)p.r(G)p.r(G)p.r(U)p.r(C)p.r(A)p.r(A)p.r(A)p.r(G)p.r(U)p.r(C)p.r(A)p.r(A)p.r(C)p.r(G)p.r(G)p.r(A)p.r(G)p.d(C)p.d(T)}$$$RNA1{StrandType:ss}|RNA2{StrandType:as}$"
target = "TMEM63B"
categorylabel = "Yes"

[[record]]
substance = "RNA1{r(U)p.r(G)p.r(C)p.r(C)p.r(G)p.r(U)p.r(G)p.r(G)p.r(G)p.r(G)p.r(A)p.r(G)p.r(C)p.r(C)p.r(A)p.r(C)p.r(G)p.r(C)p.r(C)p.d(T)p.d(T)}|RNA2{r(G)p.r(G)p.r(C)p.r(G)p.r(U)p.r(G)p.r(G)p.r(C)p.r(U)p.r(C)p.r(C)p.r(C)p.r(C)p.r(A)p.r(C)p.r(G)p.r(G)p.r(C)p.r(A)p.d(G)p.d(G)}$$$RNA1{StrandType:ss}|RNA2{StrandType:as}$"
target = "TMEM63B"
categorylabel = "Yes"

[[record]]
substance = "RNA1{r(C)p.r(C)p.r(G)p.r(C)p.r(C)p.r(G)p.r(A)p.r(G)p.r(A)p.r(G)p.r(G)p.r(C)p.r(G)p.r(C)p.r(A)p.r(A)p.r(C)p.r(G)p.r(U)p.d(T)p.d(T)}|RNA2{r(A)p.r(C)p.r(G)p.r(U)p.r(U)p.r(G)p.r(C)p.r(G)p.r(C)p.r(C)p.r(U)p.r(C)p.r(U)p.r(C)p.r(G)p.r(G)p.r(C)p.r(G)p.r(G)p.d(C)p.d(C)}$$$RNA1{StrandType:ss}|RNA2{StrandType:as}$"
target = "TMEM63B"
categorylabel = "No"

[[record]]
substance = "RNA1{r(C)p.r(U)p.r(U)p.r(C)p.r(C)p.r(U)p.r(G)p.r(U)p.r(A)p.r(U)p.r(C)p.r(U)p.r(G)p.r(C)p.r(U)p.r(G)p.r(C)p.r(U)p.r(C)p.d(T)p.d(T)}|RNA2{r(G)p.r(A)p.r(G)p.r(C)p.r(A)p.r(G)p.r(C)p.r(A)p.r(G)p.r(A)p.r(U)p.r(A)p.r(C)p.r(A)p.r(G)p.r(G)p.r(A)p.r(A)p.r(G)p.d(G)p.d(C)}$$$RNA1{StrandType:ss}|RNA2{StrandType:as}$"
target = "TMEM63B"
categorylabel = "Yes"

[[record]]
substance = "RNA1{r(U)p.r(C)p.r(C)p.r(U)p.r(G)p.r(G)p.r(G)p.r(A)p.r(G)p.r(C)p.r(U)p.r(C)p.r(A)p.r(G)p.r(G)p.r(G)p.r(G)p.r(A)p.r(U)p.d(T)p.d(T)}|RNA2{r(A)p.r(U)p.r(C)p.r(C)p.r(C)p.r(C)p.r(U)p.r(G)p.r(A)p.r(G)p.r(C)p.r(U)p.r(C)p.r(C)p.r(C)p.r(A)p.r(G)p.r(G)p.r(A)p.d(G)p.d(C)}$$$RNA1{StrandType:ss}|RNA2{StrandType:as}$"
target = "TMEM63B"
categorylabel = "No"

[[record]]
substance = "RNA1{r(A)p.r(G)p.r(C)p.r(A)p.r(G)p.r(G)p.r(U)p.r(G)p.r(G)p.r(A)p.r(G)p.r(G)p.r(C)p.r(C)p.r(A)p.r(U)p.r(U)p.r(G)p.r(A)p.d(T)p.d(T)}|RNA2{r(U)p.r(C)p.r(A)p.r(A)p.r(U)p.r(G)p.r(G)p.r(C)p.r(C)p.r(U)p.r(C)p.r(C)p.r(A)p.r(C)p.r(C)p.r(U)p.r(G)p.r(C)p.r(U)p.d(C)p.d(A)}$$$RNA1{StrandType:ss}|RNA2{StrandType:as}$"
target = "TMEM63B"
categorylabel = "Yes"

[[record]]
substance = "RNA1{r(C)p.r(C)p.r(U)p.r(A)p.r(C)p.r(A)p.r(G)p.r(C)p.r(U)p.r(U)p.r(U)p.r(G)p.r(G)p.r(G)p.r(A)p.r(G)p.r(A)p.r(A)p.r(C)p.d(T)p.d(T)}|RNA2{r(G)p.r(U)p.r(U)p.r(C)p.r(U)p.r(C)p.r(C)p.r(C)p.r(A)p.r(A)p.r(A)p.r(G)p.r(C)p.r(U)p.r(G)p.r(U)p.r(A)p.r(G)p.r(G)p.d(C)p.d(A)}$$$RNA1{StrandType:ss}|RNA2{StrandType:as}$"
target = "TMEM63B"
categorylabel = "Yes"


Next:
Query: Determine whether this substance has normalised inhibition (eCFP-eYFP dual reporter) no lower than 60%: RNA1{r(U)p.r(G)p.r(U)p.r(G)p.r(U)p.r(A)p.r(A)p.r(A)p.r(U)p.r(G)p.r(C)p.r(C)p.r(A)p.r(G)p.r(G)p.r(G)p.r(C)p.r(U)p.r(G)p.d(T)p.d(T)}|RNA2{r(C)p.r(A)p.r(G)p.r(C)p.r(C)p.r(C)p.r(U)p.r(G)p.r(G)p.r(C)p.r(A)p.r(U)p.r(U)p.r(U)p.r(A)p.r(C)p.r(A)p.r(C)p.r(A)p.d(C)p.d(G)}$$$RNA1{StrandType:ss}|RNA2{StrandType:as}$
Result: Yes
